So I've got a bunch of binders here, and I need their Kd values.
Biological target: T1, PUF4 RNA-binding domain (Saccharomyces cerevisiae, UniProt P25339 537-888)
T1 sequence: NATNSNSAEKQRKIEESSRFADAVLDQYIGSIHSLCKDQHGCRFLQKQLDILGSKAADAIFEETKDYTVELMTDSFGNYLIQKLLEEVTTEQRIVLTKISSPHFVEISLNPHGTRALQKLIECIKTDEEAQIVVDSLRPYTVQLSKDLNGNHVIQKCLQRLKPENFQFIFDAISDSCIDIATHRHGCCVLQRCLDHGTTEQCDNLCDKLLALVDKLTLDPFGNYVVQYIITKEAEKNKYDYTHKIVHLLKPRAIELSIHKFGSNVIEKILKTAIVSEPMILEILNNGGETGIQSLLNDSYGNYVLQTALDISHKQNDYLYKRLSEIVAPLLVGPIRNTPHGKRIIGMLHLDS
Assay: Mg; RNA-MaP; 20 mM Na-HEPES pH 7.4, 30 mM KOAc, 0.75 mM MgCl2, 0.1% Tween-20, 5% glycerol, 0.1 mg/mL BSA, 2 mM DTT; 25 C; 0.0125-409.6 nM protein
Settings: tags: N-His6-TEV cleaved; C-SNAP kept, Cy3B-labelled; label: tethered on chip by stalled RNA polymerase

Measured Kd of Id_ii_S4_P3E.2_K3.1_C3.2_[T-1A]_H3.1_A3.1_F3.1_T3.2 (ssRNA) RNA: UUUGACAACUGAUCGUUCUUUCUCAUGUAUAUAUAUUCUUUCUCGAUCAGUUGUCUUU : 1.73 nM

The binder identified as UCUCUUGCUAUAUAUUAUAUCUCUU (ssRNA) [Id_ii_S1_P4E.3_K4.2_C4.2_[C-2G]_[T-1C]_H4.2_A4.1_F4.1_T4.2_[G10T]_[T11A]] registered its Kd at 57.3 nM

The measured Kd associated with Ib_S4_P4E.1_K4.1_C4.1_H4.1_[G2A]_[A4G]_A4.1_F4.1_T4.1 (ssRNA) RNA: UUUGACAACUGAUCGUUCUUUCUUAUGUAUUAUUCUUUCUCGAUCAGUUGUCUUU reads 15.2 nM

For record Id_ii_S2_P4E.3_K4.2_C4.2_[C-2T]_[T-1C]_H4.2_A4.1_F4.1_T4.2_[G10A]_[T11A] (ssRNA) RNA: UUUGAUUAAUAUGAUAUCGUUCUUUCUUCUAUAUAUUAAAUUCUUUCUCGAUAUCAUAUUAAUCUUU the listed Kd is 18.5 nM

Memo: ACAAACGGACACUUAUUAGCACAAAC (ssRNA) [Id_ii_S3_P5E.4_K5.3_C5.2_[C-2G]_[T-1G]_H5.3_A5.1_F5.1_T5.2_[T11G]_[A12C]] , reported Kd: > 2300 nM

Short answer for UCUCUUUGUCCUAUAUUAUCUCUU (ssRNA) [Ie_S1_P4E.1_K4.1_C4.1_H4.1_[+2TCC]_A4.1_F4.1_T4.1] : Kd was 40.4 nM
